Tested on: HepG2-TUBA1B-RELA
Test: phenotypically active (imaging signature differs from DMSO and reproducible) at any of 0.3-9 uM (binary (1 = active, 0 = inactive)); higher = active
Details: treatment time: 24 h

{"Compound": "CC(=O)[C@H]1CC[C@H]2[C@@H]3CCC4=CC(=O)CC[C@]4(C)[C@H]3CC[C@]12C", "phenotypically active": 0}
{"Compound": "C=CC(=O)N1CCC[C@@H](n2nc(-c3cccc(C(=O)Nc4ccc(C(C)C)c(C)c4)c3)c3c(N)ncnc32)C1", "phenotypically active": 1}
{"Compound": "COCCOC(=O)C1=C(C)NC(C)=C(C(=O)OC(C)C)C1c1cccc([N+](=O)[O-])c1 (centres undefined)", "phenotypically active": 0}
{"Compound": "CCOC(=O)Nc1ccc2c(c1)N(C(=O)CCN1CCOCC1)c1ccccc1S2", "phenotypically active": 0}
